Tested on: OVCAR-3 ovarian
protocol_details: NCI-60 one-dose screen, 48 h
test_conditions: 10 µM unless noted
About 83,000 compounds went through this panel and 20% of them were active in at least one assay; those are over-represented in the sample as a whole. The source made the active and inactive calls. Rule for the calls: active = growth percent below 10; inactive = the rest.
Assign a class; possible classes are Y = active, N = inactive

Example cases with answers are listed next.
CCNC(=O)Oc1ccc(/C(=C(/C)c2ccccc2)c2ccc(OCCN3CCCCCC3)cc2)cc1; Y
CCN(CC)CCn1c2ccc(O)cc2c2sc3cc(OC)ccc3c(=O)c21; N
Cc1ccc(S(=O)(=O)N(CC[C@@H]2C[C@H]2c2cc3ccccc3o2)S(=O)(=O)c2ccc(C)cc2)cc1; N

Task: What did the test return for N/C(=N\C(N)=N\c1nc2ccccc2s1)c1cccc(F)c1 ?
Result: N

Task: Recorded test call requested for CNC(=O)c1c(NC(=O)c2cccc(C(F)(F)F)c2F)sc2c1CCC(=O)C2
Result: N

Task: Test call for this compound, please: CN(C)CCNC(=O)c1ccc(-c2nc3ccc4[nH]ncc4c3c3c2CCC3)cc1
Result: Y

Task: Short answer needed: outcome of this test for CCCn1cnc2c(c1=N)C(c1ccc(Cl)cc1)c1sc3c(C)cccc3c1O2 (stereo not given) ?
Result: Y

Task: Tell me the recorded outcome of this test for O=C(CN1CCN(c2cc(=O)n(-c3ccccc3)c3ccccc23)CC1)Nc1ccc(F)cc1 .
Result: N

---

Test system: SK-MEL-5 melanoma
protocol_details: NCI-60 one-dose screen, 48 h (100 = growth as untreated, 0 = no growth, -100 = all killed)
test_conditions: 10 µM unless noted
This is part of a sample that, as a whole, favours compounds with a hit. Of some 83,000 tested, about 20% had one in any assay.
Label scheme, based on growth: low-valued (below -10%), mid-valued (-10% to below 90%), high-valued (90% or more)

Task: Entry CNC(=O)c1cc(N2CCc3cc(NC(=O)Nc4ccc(Cl)c(C(F)(F)F)c4)ccc32)ccn1 belongs to which category?
Result: mid-valued

Task: Quick check: band for COC(=O)c1ccc(NC2=C/C(=N/S(=O)(=O)c3ccc(C(=O)O)cc3)c3ccccc3C2=O)cc1
Result: low-valued

Task: Entry Cc1ccc(NC(=O)c2ccc(CN3CCN(C)CC3)cc2)cc1Oc1ccc(-c2[nH]nc3ncnc(N)c23)cc1 belongs to which category?
Result: mid-valued

---

System: CCRF-CEM leukemia
protocol_details: NCI-60 one-dose screen, 48 h
test_conditions: 10 µM unless noted
The panel holds about 83,000 compounds, 20% with a hit somewhere; the sample as a whole holds those more often. Calls of active or inactive are those of the source. The calls were made as follows: active = growth percent below 10; inactive = the rest.
Returns: one label drawn from true for active, false for inactive

Please review the following examples before continuing.
CNC(=O)c1cc(-c2ccc(NC(=S)Nc3cc(C(F)(F)F)cc(C(F)(F)F)c3)cc2)nc2cccnc12; false
O=C(O)c1ccc(-n2cc(CNc3cccc(Cl)c3)c(-c3ccc(F)cc3)n2)cc1; false
COc1ccc(C2CC(c3cccc(Nc4nc(Cl)nc5cc(OC)c(OC)cc45)c3)=Nc3c(N)nc(N)nc3N2)cc1 (configuration not stated); false
CCc1cccc2c3c(sc12)C(c1ccc(Cl)cc1)C(C#N)=C(/N=C/c1ccc(Cl)cc1)O3 (configuration not stated); false
Clc1ccc(N/N=c2/oc3ccccc3cc2-c2cc3ccccc3[nH]2)cc1; false

Task: Which outcome was entered for the molecule Nc1ccccc1NC(=O)c1ccc(NC(=O)C/C=C/c2cccnc2)cc1 in this test?
Result: false

Task: // outcome(item) with item = Cc1ccc2c(c1)C13C(=C2Br)CCCN1C(=O)c1ccccc13 (configuration not stated)
Result: false

Task: Recorded test call requested for N/C(=N\C(N)=N\c1nc2ccccc2s1)c1ccc(C(F)(F)F)cc1
Result: false

Task: Could you kindly confirm the outcome this assay logged for NS(=O)(=O)c1ccc(Nc2nc(N/N=C/c3c[nH]c4ccccc34)nc(Nc3ccccc3)n2)cc1 ?
Result: false

Task: Look up the recorded call for N/C(=N\C(N)=N\c1nc2ccccc2s1)c1cccc(F)c1 in this test.
Result: false

Task: // return assay outcome for O=S(=O)(Nc1ccc(I)cc1Cl)c1ccc(-c2cnc(C3CC3)o2)cc1
Result: false

Task: Could you please tell me the result logged for COc1c(N2CC3CCCNC3C2)c(F)cc2c(=O)c(C(=O)N/N=C/c3ccc(F)cc3)cn(C3CC3)c12 (configuration not stated) in this assay?
Result: false

Task: Tell me the recorded outcome of this test for N#Cc1cccc(CN2CCC3=C(C2)C(=O)N(Cc2ccc(Cl)cc2)C2=NCCN23)c1 .
Result: false

---

Test system: HOP-62 NSCLC
protocol_details: NCI-60 one-dose screen, 48 h (100 = growth as untreated, 0 = no growth, -100 = all killed)
test_conditions: 10 µM unless noted
Experimental: Growth inhibition of the HOP-62 human Non-Small Cell Lung tumor cell line is measured as a screen for anti-cancer activity. Cells are grown in 96 well plates and exposed to the test compound for 48 hours. Compounds are tested at a single concentration, which is 10^-5 M for most compounds. The reported endpoint is percent growth (GI% or GIPRCNT), where numbers from 0 - 100% represent growth inhibition, and numbers from -100% - 0 represent cell death. […]
The panel holds about 83,000 compounds, 20% with a hit somewhere; the sample as a whole holds those more often.
// NB: equality with 90% counts as n; only growth strictly below is y

The examples below pair each entry with its known result.
Cn1cc(CNc2nc3ccc(OC/C(=C/F)CN)cc3o2)ccc1=O; n
CC(C)c1ccc(NCc2cn(-c3ccc(C(=O)O)cc3)nc2-c2cc(C(F)(F)F)cc(C(F)(F)F)c2)cc1; n
O=C(CCn1c[n+](CC(=O)c2ccc(F)cc2)c2ccccc21)Nc1cccc2cccnc12; y

Now consider a different compound.
Task: For this compound, is growth lower than 90%? CC(O)c1cc2ccccc2c(=O)o1 (stereo not given)
Result: n

---

System: COLO 205 colon
protocol_details: NCI-60 one-dose screen, 48 h (100 = growth as untreated, 0 = no growth, -100 = all killed)
test_conditions: 10 µM unless noted
About 83,000 compounds went through this panel and 20% of them were active in at least one assay; those are over-represented in the sample as a whole.
readout_name: growth (%)
Provide only the numeric value, understood in %.

COc1ccc(NCc2cn(-c3ccc(C(=O)O)cc3)nc2-c2cc(C(F)(F)F)cc(C(F)(F)F)c2)cc1; 110

Task: Provide measured growth value, entry: CC(=O)N(C)C1CCc2c(sc(NC(=O)c3ccc(C(C)(C)C)cc3)c2C(N)=O)C1 (centres undefined)
Result: 103

Task: Give me measured growth, please, for this compound: NS(=O)(=O)c1ccc(Nc2nc(SCC(=O)c3ccc(Cl)cc3)nc3c2CCCC3)cc1
Result: 46

Task: Output measured growth for this item: NC(N)=Nc1ccc(Nc2cccc(Nc3ccc(Cl)c(C(F)(F)F)c3)c2)cn1
Result: -25.1

Task: Write down growth measured for item CCN(CC)c1ccc2c(c1)Oc1nc(N)c(C#N)c(N)c1C2Sc1ccc(C)cc1 (centres undefined)
Result: -53.6

Task: Retrieve growth measured for O=C(CNc1nc(-c2cccc([N+](=O)[O-])c2)cs1)Nc1cccc(Cl)c1 and print it.
Result: 112

---

Test system: UACC-257 melanoma
protocol_details: NCI-60 one-dose screen, 48 h (100 = growth as untreated, 0 = no growth, -100 = all killed)
test_conditions: 10 µM unless noted
Compounds without any hit were thinned out: in the full panel of roughly 83,000, 20% have a hit.
Decide by growth: equal to or exceeding 50% means Condition met, less means Condition not met.

COc1cc(/C=C/C(=O)c2ccc(NC(=O)CSc3nnc(-c4ccc(-c5nc6ccc(Cl)cc6[nH]5)cc4)o3)cc2)cc(OC)c1OC; Condition met
CCCn1cnc2c(c1=N)C(c1ccc(OC)cc1)c1sc3c(CC)cccc3c1O2 (stereo not drawn); Condition met
Oc1ccc(CSc2nnc(-c3ccc(Cl)cc3)n2-c2ccccc2)c2cccnc12; Condition not met
CCNC(=O)Oc1ccc(/C(=C(/C)c2ccccc2)c2ccc(OCCN3CCCCCC3)cc2)cc1; Condition not met
CC(C)(C)c1ccc(-c2nnc(-c3nc4ccccc4nc3Cl)o2)cc1; Condition met
Cc1cc(C)cc(C(=O)Nc2cccc(C#Cc3cccc4[nH]nc(N)c34)c2)c1; Condition met
CN(C)CCNC(=O)c1ccc(-c2nc3ccc4[nH]ncc4c3c3c2CCC3)cc1; Condition not met
C=C(C)[C@@H]1CC[C@]2(C(=O)NCCCCCN(CCC#N)CCC#N)CC[C@]3(C)[C@H](CC[C@@H]4[C@@]5(C)CCC(=O)C(C)(C)[C@@H]5CC[C@]43C)[C@@H]12; Condition met
Cc1nc2ncc(-c3ccc4ncnc(NCc5ccccc5)c4c3)cc2[nH]1; Condition met
ClC(Cl)c1nc(-c2ccco2)n2nc(-c3ccccc3)cc2n1; Condition met

As a next step, examine the compound that follows.
Task: API: above_or_equal(metric=growth, cutoff=50%) for item COc1ccc(/C=C(/C)c2ccc3ccc(OC)cc3[o+]2)c(O)c1
Result: Condition met
